pIC50 values, listed per item
Test system: RS4; 11Bcl-2-G101V cells
Test: CellTiter-Glo (CTG) cell viability assay in RS4;11-Bcl-2-G101V cells
Type: cell-based
Conditions: 72 h, 10% FBS, 3 days
Notebook: values listed as pIC50 are -log10 of the concentration (mol/L).

Example entries begin here.
>>> recordedvalue("CC(C)c1cscc1C1=C(CN2CCN(c3ccc(C(=O)NS(=O)(=O)c4ccc(NC[C@H]5COCCO5)c([N+](=O)[O-])c4)c(Oc4cnc5[nH]ccc5c4)c3)CC2)CCC(C)(C)C1 [Example 9]")
5.27
>>> recordedvalue("COC(C)(C)c1ccc(-c2csc(C3=C(CN4CCN(c5ccc(C(=O)NS(=O)(=O)c6ccc(NC[C@H]7CC[C@](C)(O)CC7)c([N+](=O)[O-])c6)c(Oc6cnc7[nH]ccc7c6)c5)CC4)CCC(C)(C)C3)c2)c(F)c1 [Example 76]")
5.77

Quick one: pIC50 of CC1(C)CCC(CN2CCN(c3ccc(C(=O)NS(=O)(=O)c4ccc(NC[C@H]5COCCO5)c([N+](=O)[O-])c4)c(Oc4cnc5[nH]ccc5c4)c3)CC2)=C(c2cc(CN3CCC(F)(F)CC3)cs2)C1 [Example 32] ?
6.25

Quick one: pIC50 of CC1(C)CCC(CN2CCN(c3ccc(C(=O)NS(=O)(=O)c4ccc(NC[C@H]5CC[C@](C)(O)CC5)c([N+](=O)[O-])c4)c(Oc4cnc5[nH]ccc5c4)c3)CC2)=C(c2cc(-c3cc(F)c(F)c(F)c3)cs2)C1 [Example 45] ?
5.77

Quick one: pIC50 of CC(C)c1ccc(C2=C(CN3CCN(c4ccc(C(=O)NS(=O)(=O)c5ccc(NC[C@H]6COCCO6)c([N+](=O)[O-])c5)c(Oc5cnc6[nH]ccc6c5)c4)CC3)CCC(C)(C)C2)s1 [Example 14] ?
5.58

Quick one: pIC50 of CC1(C)CCC(CN2CCN(c3ccc(C(=O)NS(=O)(=O)c4ccc(NC[C@H]5COCCO5)c([N+](=O)[O-])c4)c(Oc4cnc5[nH]ccc5c4)c3)CC2)=C(c2cc(NC(=O)c3ccccc3)cs2)C1 [Example 18] ?
5.69

Quick one: pIC50 of CC1(C)CCC(CN2CCN(c3ccc(C(=O)NS(=O)(=O)c4ccc(NC[C@H]5COCCO5)c([N+](=O)[O-])c4)c(Oc4cnc5[nH]ccc5c4)c3)CC2)=C(c2cc(CN3CCN4CCOC[C@H]4C3)cs2)C1 [Example 30] ?
5.84

Quick one: pIC50 of Cc1sccc1C1=C(CN2CCN(c3ccc(C(=O)NS(=O)(=O)c4ccc(NCC5CCOCC5)c([N+](=O)[O-])c4)c(Oc4cnc5[nH]ccc5c4)c3)CC2)CCC(C)(C)C1 [Example 1] ?
5.93

Quick one: pIC50 of CC1(C)CCC(CN2CCN(c3ccc(C(=O)NS(=O)(=O)c4ccc(NC[C@H]5COCCO5)c([N+](=O)[O-])c4)c(Oc4cnc5[nH]ccc5c4)c3)CC2)=C(c2cc(-c3ccc(C(F)(F)F)cc3)cs2)C1 [Example 40] ?
5.45
